# study target: OXA-3 (Pseudomonas aeruginosa, UniProt Q51429)
# Sequence (Q51429 22-275): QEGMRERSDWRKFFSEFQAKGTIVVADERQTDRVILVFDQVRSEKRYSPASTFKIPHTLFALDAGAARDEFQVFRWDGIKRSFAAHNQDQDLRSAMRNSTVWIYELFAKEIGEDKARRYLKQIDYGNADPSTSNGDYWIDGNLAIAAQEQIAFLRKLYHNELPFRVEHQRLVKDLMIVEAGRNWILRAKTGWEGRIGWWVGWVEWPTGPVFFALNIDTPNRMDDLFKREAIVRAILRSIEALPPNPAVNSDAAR
# assay procedure: Indirect reagent disk test, antibiotic inactivation
# Format: cell-based
# setup conditions: enzyme OXA-3; indirect method
measurement name: Reagent disk test result (indentation of inhibition zone = antibiotic inactivation)

Consider the following illustrative entries.
C[C@@H](O)[C@H]1C(=O)N2C(C(=O)O)=C(S[C@@H]3CN[C@H](C(=O)N(C)C)C3)[C@H](C)[C@H]12 [MEM, meropenem]
N
C[C@H]1[C@H](NC(=O)/C(=N\OC(C)(C)C(=O)O)c2csc(N)n2)C(=O)N1S(=O)(=O)O [Aztreonam, aztreonam]
N
CC(C)(O/N=C(\C(=O)N[C@@H]1C(=O)N2C(C(=O)[O-])=C(C[n+]3ccccc3)CS[C@H]12)c1csc(N)n1)C(=O)O [Ceftazidime, ceftazidime]
N
CO/N=C(\C(=O)N[C@@H]1C(=O)N2C(C(=O)O)=C(COC(C)=O)CS[C@H]12)c1csc(N)n1 [CTX, cefotaxime]
N

// below: Reagent disk test result (indentation of inhibition zone = antibiotic inactivation) requested for another compound
Req: Entry under review: CO/N=C(\C(=O)N[C@@H]1C(=O)N2C(C(=O)O)=C(CSc3nc(=O)c(O)nn3C)CS[C@H]12)c1csc(N)n1 [CRO, ceftriaxone] . Reported Reagent disk test result (indentation of inhibition zone = antibiotic inactivation)?
Resp: N

----------
# study target: OXA-2 (Escherichia coli, UniProt P0A1V9)
# Sequence (P0A1V9 22-275): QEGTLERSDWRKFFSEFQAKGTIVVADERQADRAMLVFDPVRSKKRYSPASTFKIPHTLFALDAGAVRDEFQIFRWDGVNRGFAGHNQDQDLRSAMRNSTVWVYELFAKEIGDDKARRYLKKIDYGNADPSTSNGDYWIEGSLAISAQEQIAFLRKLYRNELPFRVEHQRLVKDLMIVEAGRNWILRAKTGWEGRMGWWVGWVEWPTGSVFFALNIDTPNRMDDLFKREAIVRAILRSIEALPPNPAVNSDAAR
# assay procedure: Indirect reagent disk test, antibiotic inactivation
# Type: cell-based
# setup conditions: enzyme OXA-2; indirect method
measurement name: Reagent disk test result (indentation of inhibition zone = antibiotic inactivation)

Recorded Reagent disk test result (indentation of inhibition zone = antibiotic inactivation), per entry:
C[C@@H](O)[C@H]1C(=O)N2C(C(=O)O)=C(S[C@@H]3CN[C@H](C(=O)N(C)C)C3)[C@H](C)[C@H]12 [MEM, meropenem]
WP?
CO/N=C(\C(=O)N[C@@H]1C(=O)N2C(C(=O)O)=C(CSc3nc(=O)c(O)nn3C)CS[C@H]12)c1csc(N)n1 [CRO, ceftriaxone]
N
CO/N=C(\C(=O)N[C@@H]1C(=O)N2C(C(=O)O)=C(COC(C)=O)CS[C@H]12)c1csc(N)n1 [CTX, cefotaxime]
N
CC(C)(O/N=C(\C(=O)N[C@@H]1C(=O)N2C(C(=O)[O-])=C(C[n+]3ccccc3)CS[C@H]12)c1csc(N)n1)C(=O)O [Ceftazidime, ceftazidime]
N

Continue with the next compound.
Req: Param item = C[C@H]1[C@H](NC(=O)/C(=N\OC(C)(C)C(=O)O)c2csc(N)n2)C(=O)N1S(=O)(=O)O [Aztreonam, aztreonam] ; retrieve measured Reagent disk test result (indentation of inhibition zone = antibiotic inactivation).
Resp: N

----------
# study target: L-1 (Stenotrophomonas maltophilia)
# Sequence (P52700 34-290): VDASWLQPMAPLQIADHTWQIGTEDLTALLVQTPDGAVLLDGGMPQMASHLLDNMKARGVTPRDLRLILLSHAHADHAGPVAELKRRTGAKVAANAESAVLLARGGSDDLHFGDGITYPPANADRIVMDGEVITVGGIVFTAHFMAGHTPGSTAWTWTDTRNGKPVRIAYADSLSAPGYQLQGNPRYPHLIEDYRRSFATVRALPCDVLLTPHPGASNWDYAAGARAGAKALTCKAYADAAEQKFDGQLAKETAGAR
# assay procedure: Indirect reagent disk test, antibiotic inactivation; note: key: P, positive; N, negative; WP, weak positive (slight flattening); ?, results were questionable
# Format: cell-based
# setup conditions: enzyme L-1; indirect method
measurement name: Reagent disk test result (indentation of inhibition zone = antibiotic inactivation)

C[C@@H](O)[C@H]1C(=O)N2C(C(=O)O)=C(S[C@@H]3CN[C@H](C(=O)N(C)C)C3)[C@H](C)[C@H]12
N
CC1(C)S[C@@H]2[C@H](NC(=O)[C@H](N)c3ccccc3)C(=O)N2[C@H]1C(=O)O
N
CO/N=C(\C(=O)N[C@@H]1C(=O)N2C(C(=O)O)=C(COC(C)=O)CS[C@H]12)c1csc(N)n1
N
C[C@H]1[C@H](NC(=O)/C(=N\OC(C)(C)C(=O)O)c2csc(N)n2)C(=O)N1S(=O)(=O)O
N
